# System: CHL-1 (Melanoma)
# experimental.details: combination Emax (second highest fraction inhibited in the dose matrix, 72 h); higher = more inhibition; extreme values may be limits of the assay
Reported values of combination Emax for individual entries
# print the numeric value only

INSERT INTO assay_data (compound, test_system, parameter, value_reported) VALUES
  ('CC(=O)c1c(C)c2cnc(Nc3ccc(N4CCNCC4)cn3)nc2n(C2CCCC2)c1=O [Palbociclib] + CC1(C)CCC(CN2CCN(c3ccc(C(=O)NS(=O)(=O)c4ccc(NCC5CCOCC5)c([N+](=O)[O-])c4)c(Oc4cnc5[nH]ccc5c4)c3)CC2)=C(c2ccc(Cl)cc2)C1 [Venetoclax] (first compound max 10 µM, 7x7, partner max 1 µM)', 'CHL-1 (Melanoma)', 'combination Emax', 0.0898),
  ('CN(C)CCCOc1ccc(-c2ccc3ncc4c(c3c2)n(C2CCOCC2)c(=O)n4C)cn1 [AZD0156] + C[C@@H]1COCCN1C2=NC(=NC(=C2)C3(CC3)[S@](=N)(=O)C)C4=C5C=CNC5=NC=C4 [AZD6738] (first compound max 1 µM, 7x7, partner max 10 µM)', 'CHL-1 (Melanoma)', 'combination Emax', 0.798),
  ('COc1nnc2ccc(N3CCC(c4ccc(OCCN5CCN(C)C(=O)[C@H]5C)cc4)CC3)nn12 [AZD5153] + Cn1cnc2c(F)c(Nc3ccc(Br)cc3Cl)c(C(=O)NOCCO)cc21 [Selumetinib] (first compound max 1 µM, 7x7, partner max 10 µM)', 'CHL-1 (Melanoma)', 'combination Emax', 0.666),
  ('C=CCn1c(=O)c2cnc(Nc3ccc(N4CCN(C)CC4)cc3)nc2n1-c1cccc(C(C)(C)O)n1 [AZD1775] + O=C(c1cc(Cc2n[nH]c(=O)c3ccccc23)ccc1F)N1CCN(C(=O)C2CC2)CC1 [Olaparib] (first compound max 1 µM, partner max 10 µM)', 'CHL-1 (Melanoma)', 'combination Emax', 0.528),
  ('COc1nnc2ccc(N3CCC(c4ccc(OCCN5CCN(C)C(=O)[C@H]5C)cc4)CC3)nn12 [AZD5153] + Cc1c2c(nn1C)CSCc1cc(n(C)n1)CSc1cc(c3ccccc3c1)OCCCc1c(C(=O)O)n(C)c3c-2c(Cl)ccc13 [AZD5991] (first compound max 1 µM, 7x7, partner max 1 µM)', 'CHL-1 (Melanoma)', 'combination Emax', 0.985);

Prompt: Please look up its combination Emax: C=CCn1c(=O)c2cnc(Nc3ccc(N4CCN(C)CC4)cc3)nc2n1-c1cccc(C(C)(C)O)n1 [AZD1775] + C[C@@H]1COCCN1C2=NC(=NC(=C2)C3(CC3)[S@](=N)(=O)C)C4=C5C=CNC5=NC=C4 [AZD6738] (first compound max 1 µM, partner max 10 µM)
Response: 0.84

Prompt: Also need COc1cccc2c1C(=O)c1c(O)c3c(c(O)c1C2=O)C[C@@](O)(C(=O)CO)C[C@@H]3O[C@H]1C[C@H](N)[C@H](O)[C@H](C)O1 [Doxorubicin] + Cc1cc2ncnn2cc1Nc1ncc2c(n1)n(C1CCOCC1)c(=O)n2C [AZD7648] (first compound max 1 µM, 7x7, partner max 10 µM) , thanks.
Response: 0.767

---

# Tested on: KYSE-70 (Esophageal Squamous Cell Carcinoma)
# experimental.details: combination Emax (second highest fraction inhibited in the dose matrix, 72 h); higher = more inhibition; extreme values may be limits of the assay
Reported values of combination Emax for individual entries

INSERT INTO results (molecule, value_reported) VALUES
  ('Cc1c2c(nn1C)CSCc1cc(n(C)n1)CSc1cc(c3ccccc3c1)OCCCc1c(C(=O)O)n(C)c3c-2c(Cl)ccc13 [AZD5991] + C=CCn1c(=O)c2cnc(Nc3ccc(N4CCN(C)CC4)cc3)nc2n1-c1cccc(C(C)(C)O)n1 [AZD1775] (first compound max 1 µM, partner max 1 µM)', 0.655);

Prompt: Please look up its combination Emax: COc1cccc(OCCCN)c1-c1cc(Nc2cnc(C#N)cn2)n[nH]1 [Prexasertib] + Cc1cc2ncnn2cc1Nc1ncc2c(n1)n(C1CCOCC1)c(=O)n2C [AZD7648] (first compound max 1 µM, 7x7, partner max 10 µM)
Response: 0.615

Prompt: Also need CN(C)CCCOc1ccc(-c2ccc3ncc4c(c3c2)n(C2CCOCC2)c(=O)n4C)cn1 [AZD0156] + C[C@@H]1COCCN1C2=NC(=NC(=C2)C3(CC3)[S@](=N)(=O)C)C4=C5C=CNC5=NC=C4 [AZD6738] (first compound max 1 µM, 7x7, partner max 10 µM) , thanks.
Response: 0.397

---

# Test system: NKM-1 (Acute Myeloid Leukemia)
# experimental.details: Bliss excess, mean over the matrix (fraction); higher = more synergy
parameter: Bliss excess
# print the numeric value only

Guide cases for Bliss excess, answers given:
INSERT INTO assay_data (compound, test_system, value_reported) VALUES
  ('N#Cc1cnc(Nc2cc(NC[C@H]3CNCCO3)c(C(F)(F)F)cn2)cn1 [SRA737] + O=c1[nH]cc(F)c(=O)[nH]1 [5-Fluorouracil] (first compound max 10 µM, 7x7, partner max 20 µM)', 'NKM-1 (Acute Myeloid Leukemia)', -0.0812),
  ('CC(=O)c1c(C)c2cnc(Nc3ccc(N4CCNCC4)cn3)nc2n(C2CCCC2)c1=O [Palbociclib] + Cn1cnc2c(F)c(Nc3ccc(Br)cc3Cl)c(C(=O)NOCCO)cc21 [Selumetinib] (first compound max 10 µM, 7x7, partner max 10 µM)', 'NKM-1 (Acute Myeloid Leukemia)', -0.0194),
  ('COc1cccc(OCCCN)c1-c1cc(Nc2cnc(C#N)cn2)n[nH]1 [Prexasertib] + C[C@@H]1COCCN1C2=NC(=NC(=C2)C3(CC3)[S@](=N)(=O)C)C4=C5C=CNC5=NC=C4 [AZD6738] (first compound max 1 µM, 7x7, partner max 10 µM)', 'NKM-1 (Acute Myeloid Leukemia)', -0.0583),
  ('COc1nnc2ccc(N3CCC(c4ccc(OCCN5CCN(C)C(=O)[C@H]5C)cc4)CC3)nn12 [AZD5153] + C=CCn1c(=O)c2cnc(Nc3ccc(N4CCN(C)CC4)cc3)nc2n1-c1cccc(C(C)(C)O)n1 [AZD1775] (first compound max 1 µM, partner max 1 µM)', 'NKM-1 (Acute Myeloid Leukemia)', -0.124),
  ('COc1cccc(OCCCN)c1-c1cc(Nc2cnc(C#N)cn2)n[nH]1 [Prexasertib] + C=CCn1c(=O)c2cnc(Nc3ccc(N4CCN(C)CC4)cc3)nc2n1-c1cccc(C(C)(C)O)n1 [AZD1775] (first compound max 1 µM, partner max 1 µM)', 'NKM-1 (Acute Myeloid Leukemia)', 0.056),
  ('COc1cccc(OCCCN)c1-c1cc(Nc2cnc(C#N)cn2)n[nH]1 [Prexasertib] + O=C(c1cc(Cc2n[nH]c(=O)c3ccccc23)ccc1F)N1CCN(C(=O)C2CC2)CC1 [Olaparib] (first compound max 1 µM, 7x7, partner max 10 µM)', 'NKM-1 (Acute Myeloid Leukemia)', -0.0706);

Prompt: Please look up its Bliss excess: CN(CCO)CC[C@H](CSc1ccccc1)Nc1ccc(S(=O)(=O)NC(=O)c2ccc(N3CCC([C@@H](O)c4ccccc4-c4ccc(Cl)cc4)CC3)cc2)cc1S(=O)(=O)C(F)(F)F [AZD4320] + Cn1cnc2c(F)c(Nc3ccc(Br)cc3Cl)c(C(=O)NOCCO)cc21 [Selumetinib] (first compound max 1 µM, 7x7, partner max 3 µM)
Response: -0.0208

---

# System: RT4 (Bladder Carcinoma)
# experimental.details: combination Emax (second highest fraction inhibited in the dose matrix, 72 h); higher = more inhibition; extreme values may be limits of the assay
parameter: combination Emax
# print the numeric value only

Prompt: Please look up its combination Emax: Cn1cnc2c(F)c(Nc3ccc(Br)cc3Cl)c(C(=O)NOCCO)cc21 [Selumetinib] + CCN(CCO)CCCOc1ccc2c(Nc3cc(CC(=O)Nc4cccc(F)c4)[nH]n3)ncnc2c1 [AZD2811] (first compound max 10 µM, 7x7, partner max 1 µM)
Response: 0.516

Prompt: Also need NC1(C(=O)N[C@@H](CCO)c2ccc(Cl)cc2)CCN(c2ncnc3[nH]ccc23)CC1 [Capivasertib] + CC(C)n1c(=O)n(C)c2cnc3cc(F)c(-c4ccc(OCCCN5CCCCC5)nc4)cc3c21 [AZD1390] (first compound max 10 µM, 7x7, partner max 0.3 µM) , thanks.
Response: 0.0517

---

# Test system: JHH-1 (Hepatocellular Carcinoma)
# experimental.details: Bliss excess, mean over the matrix (fraction); higher = more synergy
parameter: Bliss excess

Guide cases for Bliss excess, answers given:
INSERT INTO results (compound, value_reported) VALUES
  ('CC(=O)c1c(C)c2cnc(Nc3ccc(N4CCNCC4)cn3)nc2n(C2CCCC2)c1=O [Palbociclib] + Cc1c2c(nn1C)CSCc1cc(n(C)n1)CSc1cc(c3ccccc3c1)OCCCc1c(C(=O)O)n(C)c3c-2c(Cl)ccc13 [AZD5991] (first compound max 10 µM, 7x7, partner max 1 µM)', -0.0111),
  ('CC1(C)CCC(CN2CCN(c3ccc(C(=O)NS(=O)(=O)c4ccc(NCC5CCOCC5)c([N+](=O)[O-])c4)c(Oc4cnc5[nH]ccc5c4)c3)CC2)=C(c2ccc(Cl)cc2)C1 [Venetoclax] + C[C@@H]1COCCN1C2=NC(=NC(=C2)C3(CC3)[S@](=N)(=O)C)C4=C5C=CNC5=NC=C4 [AZD6738] (first compound max 1 µM, 7x7, partner max 10 µM)', -0.0365),
  ('CC1(C)CCC(CN2CCN(c3ccc(C(=O)NS(=O)(=O)c4ccc(NCC5CCOCC5)c([N+](=O)[O-])c4)c(Oc4cnc5[nH]ccc5c4)c3)CC2)=C(c2ccc(Cl)cc2)C1 [Venetoclax] + CN(C)CCCOc1ccc(-c2ccc3ncc4c(c3c2)n(C2CCOCC2)c(=O)n4C)cn1 [AZD0156] (first compound max 1 µM, 7x7, partner max 1 µM)', -0.042),
  ('C=CCn1c(=O)c2cnc(Nc3ccc(N4CCN(C)CC4)cc3)nc2n1-c1cccc(C(C)(C)O)n1 [AZD1775] + C[C@@H]1COCCN1C2=NC(=NC(=C2)C3(CC3)[S@](=N)(=O)C)C4=C5C=CNC5=NC=C4 [AZD6738] (first compound max 1 µM, partner max 10 µM)', 0.0194),
  ('COc1nnc2ccc(N3CCC(c4ccc(OCCN5CCN(C)C(=O)[C@H]5C)cc4)CC3)nn12 [AZD5153] + Cc1c2c(nn1C)CSCc1cc(n(C)n1)CSc1cc(c3ccccc3c1)OCCCc1c(C(=O)O)n(C)c3c-2c(Cl)ccc13 [AZD5991] (first compound max 1 µM, 7x7, partner max 1 µM)', 0.106),
  ('C=CCn1c(=O)c2cnc(Nc3ccc(N4CCN(C)CC4)cc3)nc2n1-c1cccc(C(C)(C)O)n1 [AZD1775] + C1CN(CCC1(C(=O)N[C@@H](CCO)C2=CC=C(C=C2)Cl)N)C3=NC=NC4=C3C=CN4 [Capivasertib] (first compound max 3 µM, partner max 3 µM)', -0.018);

Prompt: Please look up its Bliss excess: Cc1c2c(nn1C)CSCc1cc(n(C)n1)CSc1cc(c3ccccc3c1)OCCCc1c(C(=O)O)n(C)c3c-2c(Cl)ccc13 [AZD5991] + C[C@@H]1COCCN1C2=NC(=NC(=C2)C3(CC3)[S@](=N)(=O)C)C4=C5C=CNC5=NC=C4 [AZD6738] (first compound max 1 µM, 7x7, partner max 10 µM)
Response: 0.106

Prompt: Also need Cc1c2c(nn1C)CSCc1cc(n(C)n1)CSc1cc(c3ccccc3c1)OCCCc1c(C(=O)O)n(C)c3c-2c(Cl)ccc13 [AZD5991] + Cn1cnc2c(F)c(Nc3ccc(Br)cc3Cl)c(C(=O)NOCCO)cc21 [Selumetinib] (first compound max 1 µM, 7x7, partner max 3 µM) , thanks.
Response: 0.0408
